experiment: Plasma pharmacokinetics (non-compartmental analysis) in open-label, fixed-sequence, 2-way crossover study in healthy participants; details: human, in vivo, po, Cmax, Geometric mean, Visit 1 (Day 1): 25 mg amitriptyline + 50 mg tramadol oral, fasted, no CBD; plasma; N=13
measured.property: Cmax

compound="COc1cccc(C2(O)CCCCC2CN(C)C)c1 (stereo not shown)" observed_value="137 ng/mL"

----------
experiment: clinical; conditions: human, in vivo, 30 mg
measured.property: Cmax

molecule="CNCCC=C1c2ccccc2CCc2ccccc21 [Nortriptyline]" measured_property=Cmax observed_value="4.51 ng/mL"
molecule="CN(C)CCC=C1c2ccccc2CCc2ccccc21 [Amitriptyline]" measured_property=Cmax observed_value="14.5 ng/mL"
molecule="COc1cccc(C2(O)CCCCC2CN(C)C)c1 (stereo not drawn) [Tramadol]" measured_property=Cmax observed_value="151 ng/mL"

----------
assay: clinical; details: human, in vivo
measured.property: Cmax

compound=CNCCC=C1c2ccccc2CCc2ccccc21 observed_value="0.00436 µg/mL"
compound=CN(C)CCC=C1c2ccccc2CCc2ccccc21 observed_value="0.0123 µg/mL"
compound="COc1cccc(C2(O)CCCCC2CN(C)C)c1 (stereo not drawn)" observed_value="0.137 µg/mL"
